- Tested on: NB12 tumor-initiating cells
- test.description: IC50 determination, Alamar Blue cell survival/growth assay
- Format: cell-based, human
- protocol.conditions: Homo sapiens; NB12; 10 serial dilutions 5 μM to 9 nM; Alamar Blue; read-out: NB12 IC50
Counter-ions that a name gives are not always drawn.
Field: label. Allowed values: Condition met (IC50 < 1000 nM) or Condition not met (IC50 >= 1000 nM).

IC50 under 1000 nM? Item: CC(C)/N=c1\cc2n(-c3ccc(Cl)cc3)c3ccccc3nc-2cc1Nc1ccc(Cl)cc1 [Clofazimine] Condition not met

Please state whether IC50 is below 1000 nM for COc1cc(NS(C)(=O)=O)ccc1Nc1c2ccccc2nc2ccccc12 [AMSACRINE HYDROCHLORIDE] Condition not met

Bench note: check whether Cc1cc(N)c2ccccc2[n+]1CCCCCCCCCC[n+]1c(C)cc(N)c2ccccc21 [Dequalinium dichloride] shows IC50 below 1000 nM Condition not met

Is IC50 of N=c1ccn2c(n1)O[C@H]1[C@H](O)[C@@H](CO)O[C@H]12 [Ancitabine hydrochloride] strictly below 1000 nM? Condition met

Field: below-cutoff. Rule: recorded IC50 strictly less than 1000 nM. Subject: CC[C@@]1(O)C[C@H](O[C@H]2C[C@H](N(C)C)[C@H](O)[C@H](C)O2)c2c(cc3c(c2O)C(=O)c2c(O)cccc2C3=O)[C@H]1C(=O)OC [AKLAVINE HYDROCHLORIDE] Condition met

Does CO[C@H]1C[C@H](O[C@H]2CC[C@]3(C)[C@H]4CC[C@]5(C)[C@@H](C6=CC(=O)OC6)CC[C@]5(O)[C@@H]4CC[C@]3(O)C2)O[C@H](C)[C@H]1O [PERIPLOCYMARIN] have IC50 strictly under 1000 nM? Condition not met

* * *

- Test system: NB12 tumor-initiating cells
- test.description: IC50 determination, Alamar Blue cell survival/growth assay
- Assay type: cell-based, human
- protocol.conditions: Homo sapiens; NB12; 10 serial dilutions 5 μM to 9 nM; Alamar Blue; read-out: NB12 IC50
Counter-ions that a name gives are not always drawn.
Can you tell me pIC50 for the items I'm about to list?
pIC50 is a log-scale quantity: -log10 of the concentration expressed in molar.

Read the entry COc1cc([C@@H]2c3cc4c(cc3[C@@H](O[C@@H]3O[C@@H]5CO[C@@H](C)O[C@H]5[C@H](O)[C@H]3O)[C@H]3COC(=O)[C@H]23)OCO4)cc(OC)c1O [Etoposide] and write its reported pIC50. 6.16

Output pIC50 of CC(C)=CCCC1(C)C=Cc2c(O)c3c(c(CC=C(C)C)c2O1)OC12C(=CC4CC1C(C)(C)OC2(C/C=C(/C)C(=O)O)C4O)C3=O (stereo not shown) [DIHYD[…]] 5.77

# return recorded pIC50 for entry CCN(CC)Cc1cc(Nc2ccnc3cc(Cl)ccc23)ccc1O [Amodiaquin dihydrochloride dihydrate] 6.10

Supply reported pIC50 belonging to this molecule: CS(=O)(=O)CCCCN=C=S 5.48

* * *

- Test system: NB12 tumor-initiating cells
- test.description: IC50 determination, Alamar Blue cell survival/growth assay
- Format: cell-based, human
- protocol.conditions: Homo sapiens; NB12; 10 serial dilutions 5 μM to 9 nM; Alamar Blue; read-out: NB12 IC50
Structures can show the parent of a compound that is named as a salt.
quantity.kind: pIC50
Quick note: pIC50 values are minus log10 of concentrations in mol/L.

Under NB12 tumor-initiating cells: report pIC50 of COc1ccc2c(c[n+](C)c3c4cc5c(cc4ccc23)OCO5)c1OC [Chelerythrine chloride] . 5.59

Report pIC50 on NB12 tumor-initiating cells for this entry: CCN(CC)CCCC(C)Nc1c2ccc(Cl)cc2nc2ccc(OC)cc12 (stereo not shown) [Quinacrine dihydrochloride] 5.59

Report value only: pIC50, NB12 tumor-initiating cells, CC(C)=CCC[C@]1(C)C=Cc2c(O)c3c(c(CC=C(C)C)c2O1)O[C@]12C(=C[C@@H]4C[C@H]1C(C)(C)O[C@@]2(C/C=C(/C)C(=O)O)C4=O)C3=O 5.77

State pIC50 (NB12 tumor-initiating cells) of Cc1cc(C2CCCCC2)n(O)c(=O)c1 . 5.69

Name the recorded pIC50 of CC(=O)[C@]1(O)Cc2c(O)c3c(c(O)c2[C@@H](O[C@H]2C[C@H](N)[C@H](O)[C@H](C)O2)C1)C(=O)c1ccccc1C3=O , assay system NB12 tumor-initiating cells. 6.69

Enter recorded pIC50 with NB12 tumor-initiating cells for O=C1c2c(O)ccc(O)c2C(=O)c2c(NCCNCCO)ccc(NCCNCCO)c21 [MITOXANTHRONE HYDROCHLORIDE] here. 7.22

Specify the recorded pIC50 for CO[C@H]1[C@H](O)[C@H](O[C@H]2CC[C@@]3(C=O)[C@H](CC[C@@H]4[C@@H]3CC[C@]3(C)[C@@H](C5=CC(=O)OC5)CC[C@]43O)C2)O[C@@H](C)[C@@H]1O [PERUVOSIDE] , system: NB12 tumor-initiating cells. 6.65

* * *

Kindly state IC50 for each of the entries shown.
- Test system: NB12 tumor-initiating cells
- test.description: IC50 determination, Alamar Blue cell survival/growth assay
- Format: cell-based, human
- protocol.conditions: Homo sapiens; NB12; 10 serial dilutions 5 μM to 9 nM; Alamar Blue; read-out: NB12 IC50
Structures can show the parent of a compound that is named as a salt.
Report the value in nM with no unit label.

Check the records and state IC50 for CC[C@]1(O)C[C@H]2CN(CCc3c([nH]c4ccccc34)[C@@](C(=O)OC)(c3cc4c(cc3OC)N(C=O)[C@H]3[C@@](O)(C(=O)OC)[C@H](OC(C)=O)[C@]5(CC)C=CCN6CC[C@]43[C@@H]65)C2)C1 [Vincristine sulfate] 62

Complete the entry with IC50 for CC[N+](CC)(CC)CCOc1ccc(/C=C/c2ccccc2)cc1 848

Supply reported IC50 belonging to this compound: Cc1cccc(CN2CCN(C(c3ccccc3)c3ccc(Cl)cc3)CC2)c1 (stereo not drawn) [MECLIZINE HYDROCHLORIDE] 2540
